Quick reference: folding stability dG of the listed items.
B1: 2M8U (parent)
chain: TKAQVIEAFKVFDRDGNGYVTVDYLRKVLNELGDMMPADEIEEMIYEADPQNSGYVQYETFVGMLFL

# Variants of: B1
# assay explanation: folding stability dG (cDNA display proteolysis); higher = more stable
# experimental parameters: PBS, room temperature

>  <macromolecule sequence>
TKAQVIEAFKVFDRDGNGYVTVDYLRKVLNELGDGMPADEIEEMIYEADPQNSGYVQYETFVGMLFL [M35G]

>  <folding stability dG>
2.95 kcal/mol

$$$$
>  <macromolecule sequence>
TKAQVIEAFKVFDRDGNGYVTVDYLRKVLNGLGDMMPADEIEEMIYEADPQNSGYVQYETFVGMLFL [E31G]

>  <folding stability dG>
3.4 kcal/mol

$$$$
>  <macromolecule sequence>
TKAQVIEAFKVFDRDGNGYVTVDYLRKVLNELGDMMPADEIEEMIYEQDPQNSGYVQYETFVGMLFL [A48Q]

>  <folding stability dG>
3.37 kcal/mol

$$$$
>  <macromolecule sequence>
TKAQVIEAFKVFDRDGNGYVTVDYLRKVLNELGDMMPADEIEEMIYEADPQNSGYVQIETFVGMLFL [Y58I]

>  <folding stability dG>
3.25 kcal/mol

$$$$
>  <macromolecule sequence>
TKCQVIEAFKVFDRDGNGYVTVDYLRKVLNELGDMMPADEIEEMIYEADPQNSGYVQYETFVGMLFL [A3C]

>  <folding stability dG>
3.48 kcal/mol

$$$$
>  <macromolecule sequence>
TKAQVIEAFKVFDRDGNGYVTVDYLIKVLNELGDMMPADEIEEMIYEADPQNSGYVQYETFVGMLFL [R26I]

>  <folding stability dG>
3.22 kcal/mol

$$$$
>  <macromolecule sequence>
TKAQVIEAFKVFDRDGNGYVTVDYLRKVLNELGDMMPADEIEEMIYEADPQNSGYLQYETFVGMLFL [V56L]

>  <folding stability dG>
3.07 kcal/mol

$$$$
>  <macromolecule sequence>
TKAQVIEAFKVFDRDGNGYVTVDYLRKVLNELGDMMPADEIEECIYEADPQNSGYVQYETFVGMLFL [M44C]

>  <folding stability dG>
3.6 kcal/mol

$$$$
>  <macromolecule sequence>
TKAQVIEAFKVFDRDGNGYVTVDYLRKVLNELGDMMPADEIEEMIYEADPQNSGYVQYETFVGMLHL [F66H]

>  <folding stability dG>
2.67 kcal/mol

$$$$
>  <macromolecule sequence>
TKAQVIEAFKVFDRDANGYVTVDYLRKVLNELGDMMPADEIEEMIYEADPQNSGYVQYETFVGMLFL [G16A]

>  <folding stability dG>
2.96 kcal/mol

$$$$
>  <macromolecule sequence>
TKAQVIEAFKVFDRDGNGYVTVDYLRKVLNELGDMMPADEIEEMIYEADPQNWGYVQYETFVGMLFL [S53W]

>  <folding stability dG>
3.22 kcal/mol

$$$$
>  <macromolecule sequence>
TKAQVIEAFKVFDRDGNGYVSVDYLRKVLNELGDMMPADEIEEMIYEADPQNSGYVQYETFVGMLFL [T21S]

>  <folding stability dG>
3.64 kcal/mol

$$$$
>  <macromolecule sequence>
TNAQVIEAFKVFDRDGNGYVTVDYLRKVLNELGDMMPADEIEEMIYEADPQNSGYVQYETFVGMLFL [K2N]

>  <folding stability dG>
2.56 kcal/mol

$$$$
>  <macromolecule sequence>
TKAQVIEAFKVFDRDGNGYVTVDYLRKVLNELGDMMPADEIEEMIYEADPQHSGYVQYETFVGMLFL [N52H]

>  <folding stability dG>
3.46 kcal/mol

$$$$
>  <macromolecule sequence>
TKAQVIEAFKVFCRDGNGYVTVDYLRKVLNELGDMMPADEIEEMIYEADPQNSGYVQYETFVGMLFL [D13C]

>  <folding stability dG>
3.16 kcal/mol

$$$$
>  <macromolecule sequence>
TKAQVIEAFKVFDRDGNGYVTVDYLRKVLNELGDMMPADEIEEMIYEIDPQNSGYVQYETFVGMLFL [A48I]

>  <folding stability dG>
3.33 kcal/mol

$$$$
>  <macromolecule sequence>
TCAQVIEAFKVFDRDGNGYVTVDYLRKVLNELGDMMPADEIEEMIYEADPQNSGYVQYETFVGMLFL [K2C]

>  <folding stability dG>
3.6 kcal/mol

$$$$
>  <macromolecule sequence>
TKAQVIEAFKVFDRDGNGYVTVDYLRKVLNELGDMMPADEREEMIYEADPQNSGYVQYETFVGMLFL [I41R]

>  <folding stability dG>
3.03 kcal/mol

$$$$
>  <macromolecule sequence>
TKAQVIEAFKVFDRDGNGYVTVDYLRKVLNELGDMMPAREIEEMIYEADPQNSGYVQYETFVGMLFL [D39R]

>  <folding stability dG>
3.75 kcal/mol

$$$$
>  <macromolecule sequence>
TKAQVIEAFKVFDRDGNGYVTVDYLRKVSNELGDMMPADEIEEMIYEADPQNSGYVQYETFVGMLFL [L29S]

>  <folding stability dG>
2.06 kcal/mol

$$$$
>  <macromolecule sequence>
TKAQVIEAFKVFDRDGNGYVTVDYLRKVLNELGDMMMADEIEEMIYEADPQNSGYVQYETFVGMLFL [P37M]

>  <folding stability dG>
3.3 kcal/mol

$$$$
>  <macromolecule sequence>
TKAQVIEAFKVFDRDGNGYVTVDYLRKVLNELGDMMHADEIEEMIYEADPQNSGYVQYETFVGMLFL [P37H]

>  <folding stability dG>
3.46 kcal/mol

$$$$
